molecular target: Beta-secretase 1 (Homo sapiens, UniProt P56817); assay: Inhibition of BACE1 in human SKNBE2 cells transfected with APP695 protein assessed as reduction in amyloid beta (1 to 42) levels after 18 hrs by sandwich alphalisa assay; format: cell-based
Sequence (P56817 whole entry): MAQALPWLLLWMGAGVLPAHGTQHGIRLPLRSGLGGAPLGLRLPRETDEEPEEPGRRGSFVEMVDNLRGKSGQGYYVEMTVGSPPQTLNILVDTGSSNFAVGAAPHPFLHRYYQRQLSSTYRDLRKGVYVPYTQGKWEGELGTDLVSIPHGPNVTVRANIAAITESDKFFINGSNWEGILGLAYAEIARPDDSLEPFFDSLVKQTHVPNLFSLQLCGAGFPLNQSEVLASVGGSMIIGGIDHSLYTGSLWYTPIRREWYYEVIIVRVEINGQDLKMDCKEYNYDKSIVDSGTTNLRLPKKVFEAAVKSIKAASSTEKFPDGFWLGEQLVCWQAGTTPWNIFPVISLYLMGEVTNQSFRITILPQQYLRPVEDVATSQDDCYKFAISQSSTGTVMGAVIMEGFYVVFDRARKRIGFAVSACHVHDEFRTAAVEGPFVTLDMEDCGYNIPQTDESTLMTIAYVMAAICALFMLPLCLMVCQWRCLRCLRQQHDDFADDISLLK
assay.metric: IC50 (µM)

Solved cases (3 shown):
molecule	IC50 [µM]
C[C@]1(c2cc(NC(=O)c3cnc(NCC(F)(F)F)cn3)ccc2F)N=C(N)CO[C@H]1C(F)(F)F	4.5
C[C@@]1(c2cc(N/C=C/c3ccc(C#N)cn3)ccc2F)COCC(N)=N1	0.251
COc1cnc(C(=O)Nc2ccc(F)c([C@@]3(C)N=C(N)CO[C@H]3C(F)F)c2)cn1	0.0049

1: C[C@]1(c2cc(NC(=O)c3ncc(C#N)cc3F)ccc2F)N=C(N)CO[C@@H]1F
2: C[C@]1(c2cc(-c3cncnc3)ccc2F)N=C(N)CO[C@H]1C(F)(F)F (racemic)
For 1 and 2 , which recorded IC50 is lower? Could you answer with the label of the item you picked? 1
(1: 0.0122 µM, 2: 0.631 µM)
